All values here come from PubChem BioAssay AID540364.

assay: FXN promoter activators, primary screen, cell-based, luciferase luminescence, HEK293 lucGAA850 (AID 540364); conditions: HEK293 lucGAA850 FXN promoter luciferase reporter, 24 h; at 6 µM; stronger effect = higher value; percent of 10 µM SAHA response;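 note: 0% = DMSO wells and 100% = 10 µM SAHA wells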
Out of some 360,000 compounds screened, about 2,000 (0.56%) were called active. Only a selection was taken, and actives are over-represented in it overall.
MEASUREMENT KIND: activation (%)
Give the number; % is assumed, so skip it.

Solved entries:
CCOc1ccc(NC(=O)CN(C)C(=O)COc2cccc(CC)c2)cc1OCC | 0.68
CC(C)(C)c1ccc(C(=O)NNC(=O)Cc2ccccc2)cc1 | 3.03
CCOc1ccc(NC(=S)N2CCCCCC2)cc1 | 1.3
CC/C(=C(/c1ccccc1)c1ccc(OCC[N+](C)(C)C)cc1)c1ccccc1 | -0.77
Cc1ccc(Sc2cc(C(=O)c3ccccc3C(=O)O)ccc2[N+](=O)[O-])cc1 | 0.3

QUERY: Value lookup for activation; key = Cc1ccc(SC(CC(=O)c2ccc(C(C)(C)C)cc2)C(=O)O)cc1 (stereo not drawn)
RESULT: 9.01

QUERY: Value lookup for activation; key = CS(=O)(=O)c1ccc2nnn(OCC(=O)Nc3cccc(C#N)c3)c2c1
RESULT: -0.17

QUERY: Value lookup for activation; key = Cc1cccc(C(=O)Nc2ccccc2C(=O)NCc2cccnc2)c1
RESULT: 0.13
